Measured pIC50 by item
- target: SME-2, lysate of SM1000 (Serratia marcescens)
- experiment: Inhibition of biapenem hydrolysis by bacterial lysate
- condition-parameters: read-out: IC50 of inhibition of biapenem hydrolysis; SM1000 SME-2
pIC50: −log10 of the molar value.

Field: example entries. Status: answers known.
| molecule | pIC50 |
| --- | --- |
| O=C(O)C[C@@H]1CC[C@H](NC(=O)Cc2ccccc2)B(O)O1 | 5.46 to 6.46 |
| C[C@]1(Cn2ccnn2)[C@H](C(=O)O)N2C(=O)C[C@H]2S1(=O)=O [Tazobactam, reference compound] | 5.48 to 6.48 |
| O=C(O)CC1CC[C@H](NC(=O)C2CC2)B(O)O1 (stereo partly shown) | 5.38 to 6.38 |

Task: Fill in the recorded pIC50 for this molecule, with SME-2, lysate of SM1000 (Serratia marcescens) as test system: O=C(O)C[C@@H]1CC[C@H](NC(=O)Cc2cccs2)B(O)O1
Result: > 6.47

====

- target: various β-lactamases (bacterial lysates) (Klebsiella pneumoniae)
- experiment: biochemical
- Type: biochemical
- condition-parameters: lysate KP1004 KPC-2; aztreonam cleavage; read-out: AZT IC50 KP1004 KPC-2 (converted)
reported-metric: IC50

Task: Looking for the measured IC50 of O=C(O)C[C@@H]1CC[C@H](NC(=O)Cc2cccs2)B(O)O1 [Compound 5] , can you help?
Result: < 1.68 µM

Task: Given NCCC(=O)N[C@H]1CC[C@@H](CC(=O)O)OB1O [Compound 34] , state its recorded IC50.
Result: 2.05 to 8.19 µM

Task: What measured IC50 goes with O=C(O)C[C@@H]1CC[C@H](NC(=O)CCc2ccccc2)B(O)O1 [Compound 38] ?
Result: < 1.64 µM

Task: Any idea what IC50 was measured for O=C(O)CC1CC[C@H](NC(=O)C2CC2)B(O)O1 (stereo partly drawn) [Compound 4] ?
Result: < 2.07 µM

Task: # query: IC50 of entry Nc1cc(CC(=O)N[C@H]2CC[C@@H](CC(=O)O)OB2O)ccn1 [Compound 61]
Result: < 1.63 µM

Task: If you can, please state the reported IC50 value of O=C(O)C[C@@H]1CC[C@H](NC(=O)[C@H]2Cc3ccccc3CN2)B(O)O1 [Compound 46] .
Result: < 1.51 µM

Task: Sample O=C(O)C[C@@H]1CC[C@H](NC(=O)C[C@@H]2CCCCN2)B(O)O1 [Compound 53] — what was its IC50?
Result: < 1.68 µM

Task: I would be grateful if you could share the reported IC50 for C[C@]1(Cn2ccnn2)[C@H](C(=O)N[C@H]2CC[C@@H](CC(=O)O)OB2O)N2C(=O)C[C@H]2S1(=O)=O [Compound 59] .
Result: 1.1 to 4.39 µM

====

- target: SHV-18, lysate of KP1012 (Klebsiella pneumoniae, UniProt P0AD64, E235K/G234A/R39S)
- experiment: Inhibition of ceftazidime hydrolysis by bacterial lysate
pIC50: −log10 of the molar value.
reported-metric: pIC50

| compound | pIC50 |
| --- | --- |
| O=C(O)CC1CC[C@H](NC(=O)C2CC2)B(O)O1 (some centres unmarked) [Compound 4] | < 5.38 |
| O=C(O)C[C@@H]1CC[C@H](NC(=O)Cc2ccccc2)B(O)O1 [Compound 6] | 5.46 to 6.46 |
| Cl.N[C@H]1CCC(CC(=O)O)OB1O (some centres unmarked) [Compound 7, hydrochloride] | < 5.32 |
| CC(=O)N[C@H]1CCC(CC(=O)O)OB1O (some centres unmarked) [Compound 3] | < 5.33 |

Now, please, on to the next compound.
Task: Could you share which pIC50 value was measured for O=C(O)C[C@@H]1CC[C@H](NC(=O)Cc2cccs2)B(O)O1 [Compound 5] ?
Result: 5.47 to 6.47

====

- target: various β-lactamases (bacterial lysates) (Escherichia coli, UniProt Q53TY8)
- experiment: Inhibition of nitrocefin cleavage by bacterial lysates, Table 11
- condition-parameters: lysate EC1010 pAmpC (CMY-6), read-out: NCF IC50 EC1010 pAmpC (CMY-6)
pIC50: −log10 of the molar value.
Overview of recorded pIC50 for various compounds

Task: // map NC1(CC(=O)N[C@H]2CC[C@@H](CC(=O)O)OB2O)CCCCC1 to recorded pIC50 (system: various β-lactamases (bacterial lysates) (Escherichia coli, UniProt Q53TY8))
Result: 5.19 to 5.80

====

- target: SHV-5, lysate of ec308 (Escherichia coli, UniProt P0AD63, E235K/G234S)
- experiment: Inhibition of ceftazidime hydrolysis by bacterial lysate
reported-metric: IC50

Below, 3 molecules whose answers are already recorded.
| molecule | IC50 |
| --- | --- |
| Cl.N[C@H]1CCC(CC(=O)O)OB1O (stereo partly drawn) [Compound 7, hydrochloride] | > 4.77 µM |
| C[C@]1(Cn2ccnn2)[C@H](C(=O)O)N2C(=O)C[C@H]2S1(=O)=O [Tazobactam, reference compound] | < 0.333 µM |
| CC(=O)N[C@H]1CCC(CC(=O)O)OB1O (stereo partly drawn) | > 4.65 µM |

Task: Quick one: IC50 of O=C(O)C[C@@H]1CC[C@H](NC(=O)Cc2ccccc2)B(O)O1 ?
Result: > 3.44 µM

Task: Requested read-out: IC50. Entry: O=C(O)CC1CC[C@H](NC(=O)C2CC2)B(O)O1 (stereo partly drawn)
Result: > 4.15 µM

Task: // query IC50 value for entry O=C(O)C[C@@H]1CC[C@H](NC(=O)Cc2cccs2)B(O)O1
Result: > 3.37 µM

====

Measured pIC50 values are reported for all entries that follow.
- target: SHV-12, lysate of KP1010 (Klebsiella pneumoniae, UniProt P0AD64, E235K/G234S/L31Q)
- experiment: Inhibition of ceftazidime hydrolysis by bacterial lysate
pIC50: −log10 of the molar value.

Some compounds with known pIC50 results, for comparison:
| compound | target | pIC50 |
| --- | --- | --- |
| O=C(O)CC1CC[C@H](NC(=O)C2CC2)B(O)O1 (some centres unmarked) [Compound 4] | SHV-12, lysate of KP1010 (Klebsiella pneumoniae, UniProt P0AD64, E235K/G234S/L31Q) | < 5.38 |
| O=C(O)C[C@@H]1CC[C@H](NC(=O)Cc2cccs2)B(O)O1 [Compound 5] | SHV-12, lysate of KP1010 (Klebsiella pneumoniae, UniProt P0AD64, E235K/G234S/L31Q) | 5.47 to 6.47 |

Task: Look at this compound and give its reported pIC50. Cl.N[C@H]1CCC(CC(=O)O)OB1O (some centres unmarked) [Compound 7, hydrochloride]
Result: < 5.32

Task: Consider the compound O=C(O)C[C@@H]1CC[C@H](NC(=O)Cc2ccccc2)B(O)O1 [Compound 6] and give its measured pIC50.
Result: < 5.46

Task: Please report the recorded pIC50 for CC(=O)N[C@H]1CCC(CC(=O)O)OB1O (some centres unmarked) [Compound 3] .
Result: < 5.33

====

- target: various β-lactamases (bacterial lysates) (Salmonella typhimurium)
- experiment: biochemical
- condition-parameters: AZT IC50 KPX1001 OXA-2
Overview of recorded IC50 for various molecules

Worked examples, 2 molecules total:
| molecule | target | reported |
| --- | --- | --- |
| Nc1cc(CC(=O)N[C@H]2CC[C@@H](CC(=O)O)OB2O)ccn1 [Compound 61] | various β-lactamases (bacterial lysates) (Salmonella typhimurium) | 1.63 to 6.51 µM |
| O=C(O)C[C@@H]1CC[C@H](NC(=O)Cc2ccncc2)B(O)O1 [Compound 49] | various β-lactamases (bacterial lysates) (Salmonella typhimurium) | 1.71 to 6.85 µM |

API: the following record is the query input.
Task: I am curious: what IC50 value has been reported for N[C@H]1CC[C@@H](CC(=O)N[C@H]2CC[C@@H](CC(=O)O)OB2O)CC1 [Compound 50] ?
Result: > 6.41 µM

====

- target: SHV-2, lysate of ec306 (Escherichia coli, UniProt P0A9Z7)
- experiment: Inhibition of ceftazidime hydrolysis by bacterial lysate
reported-metric: IC50

See these solved cases before continuing.
| compound | IC50 |
| --- | --- |
| Cl.N[C@H]1CCC(CC(=O)O)OB1O (stereo partly drawn) [Compound 7, hydrochloride] | > 4.77 µM |
| O=C(O)CC1CC[C@H](NC(=O)C2CC2)B(O)O1 (stereo partly drawn) [Compound 4] | > 4.15 µM |
| O=C(O)C[C@@H]1CC[C@H](NC(=O)Cc2ccccc2)B(O)O1 [Compound 6] | 0.344 to 3.44 µM |
| CC(=O)N[C@H]1CCC(CC(=O)O)OB1O (stereo partly drawn) [Compound 3] | > 4.65 µM |

Task: Request the reported IC50 associated with O=C(O)C[C@@H]1CC[C@H](NC(=O)Cc2cccs2)B(O)O1 [Compound 5]
Result: 0.337 to 3.37 µM

Task: Look up IC50 for this compound: C[C@]1(Cn2ccnn2)[C@H](C(=O)O)N2C(=O)C[C@H]2S1(=O)=O [Tazobactam, reference compound]
Result: 0.333 to 3.33 µM
